- tested_on: LTD4 evoked ileal contractions (Cavia porcellus)
- Construct: A section of terminal ileum was removed, the lumen cleaned, and the tissue divided into 2.5 cm. segments; from tissue; host or cells: terminal ileum of male Hartley guinea pigs
- Sequence (Q2NNR5 1-340): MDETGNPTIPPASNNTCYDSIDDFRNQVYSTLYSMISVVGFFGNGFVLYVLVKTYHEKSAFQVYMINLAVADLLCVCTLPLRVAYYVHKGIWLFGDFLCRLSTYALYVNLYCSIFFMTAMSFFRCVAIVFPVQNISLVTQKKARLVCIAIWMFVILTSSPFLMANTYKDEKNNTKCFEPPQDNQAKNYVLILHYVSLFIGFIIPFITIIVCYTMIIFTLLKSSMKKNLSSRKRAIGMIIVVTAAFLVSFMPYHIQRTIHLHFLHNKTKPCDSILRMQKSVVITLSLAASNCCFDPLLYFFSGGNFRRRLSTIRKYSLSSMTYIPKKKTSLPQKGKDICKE
- protocol_notes: LTD4 antagonism, cumulative concentration-response curves in guinea pig ileum and trachea (pA2)
- Type: cell-based
- recorded_conditions: 30 minute incubation with antagonist, Furchgott method
Provide the reported Kb of each item.
// return numeric value only (unit: nM, not printed)

Recorded Kb (compound CCCc1c(OC(C)CCCCC(=O)O)ccc(C(C)=O)c1O (stereo not shown) ): 1580

Lab note: `CCCc1c(OCCCCCCc2nnn[nH]2)ccc(C(C)=O)c1O` gave Kb of 79.4

According to the records, this compound `CCCc1c(OCCCCCC(=O)O)ccc(C(=O)CC)c1O` displays Kb of 794

The compound `CCCc1c(OCCCCCCCCC(=O)O)ccc(C(C)=O)c1O` showed Kb equal to 2000

Query `CCCc1c(OCCCCCc2nnn[nH]2)ccc(C(C)=O)c1O` yields Kb of 263

For reference, reported Kb for `CCCc1c(OCCSc2nn[nH]n2)ccc(C(C)=O)c1O` stands at 1120

GET /value?item= `CCCc1c(OCCCCCSc2nn[nH]n2)ccc(C(C)=O)c1O` &field=Kb returns 158

Short answer for `CCCc1c(OCCCCCCCCCc2nnn[nH]2)ccc(C(C)=O)c1O` : Kb was 316

response.value for `CCCc1c(OCCCCCCCCc2nnn[nH]2)ccc(C(C)=O)c1O` (field: Kb) = 316

Kb for `CCCc1c(OCCCCCCCCCCc2nnn[nH]2)ccc(C(C)=O)c1O` is 316

Recorded Kb (compound `CCCc1c(OCCCCCCCc2nnn[nH]2)ccc(C(C)=O)c1O` ): 79.4

The recorded Kb for entry `CCCc1c(OCCCCCCCCSc2nn[nH]n2)ccc(C(C)=O)c1O` equals 501

`CCCc1c(OCCCCSc2nn[nH]n2)ccc(C(C)=O)c1O` has a reported Kb of 100

The value of Kb measured for the compound `CCCc1c(OCCCCC(=O)O)ccc(C(C)=O)c1O` turned out to be 1580

Per the record, `CCCc1c(OCCCSc2nn[nH]n2)ccc(C(C)=O)c1O` has Kb of 31.6

// sample `CCCc1c(OCCCCCC(=O)O)ccc(C(C)=O)c1O` , its Kb was 398

* * *

- tested_on: LTD4 evoked ileal contractions (Cavia porcellus)
- Construct: A section of terminal ileum was removed, the lumen cleaned, and the tissue divided into 2.5 cm. segments; from tissue; host or cells: terminal ileum of male Hartley guinea pigs
- protocol_notes: Antagonism of LTD4-evoked contraction of isolated guinea pig ileum (single concentration)
- Type: cell-based
- recorded_conditions: 1 × 10^-5 M, pure LTD4, 5 minute exposure, read-out: Percent Inhibition of LTD4 evoked ileal contractions
Structures can show the parent of a compound that is named as a salt.
Can you tell me inhibition at 10 µM for the items I'm about to list?
# number then unit; no other words

For CCCc1c(OCCCCCCN2CCN(C)CC2)ccc(C(C)=O)c1O [Example 37, dihydrochloride] on LTD4 evoked ileal contractions (Cavia porcellus), measured inhibition at 10 µM was 78%

The observed inhibition at 10 µM for CCCc1c(OCCCCCCN2CCOCC2)ccc(C(C)=O)c1O [Example 35, hydrochloride] when tested with LTD4 evoked ileal contractions (Cavia porcellus) stands at 80%

Let me check: CCCc1c(OC(C)CCCCC(=O)O)ccc(C(C)=O)c1O (stereo not drawn) , system LTD4 evoked ileal contractions (Cavia porcellus), measured inhibition at 10 µM is 79%

Log: LTD4 evoked ileal contractions (Cavia porcellus), compound `CCCc1c(OCCCCCCCC(=O)O)ccc(C(C)=O)c1O` , inhibition at 10 µM = 94%

Lab note: compound `CCCc1c(OCCCCCCO)ccc(C(C)=O)c1O` tested on LTD4 evoked ileal contractions (Cavia porcellus); recorded inhibition at 10 µM was 74%

Log: LTD4 evoked ileal contractions (Cavia porcellus), compound `CCCc1c(OCCCCCC(=O)O)ccc(C(=O)CC)c1O` , inhibition at 10 µM = 88%
